Values compiled from patent US20220220100A1.

procedure.details: Oxidation potential of ring-closed and ring-open isomers
Type: physicochemical
particulars: ring-open isomer; no unit printed in table (V relative to Ag/AgCl)
Examples of compounds with documented RO [O] (oxidation potential of ring-open isomer) follow.
Reply with just the number.

Here are 2 compounds together with their reported answers.
>  <structure.string>
CCOC(=O)CCCOc1cc2oc(-c3ccc(C(C)(C)C)cc3)c(C3=C(c4cc(-c5sc(C(C)(C)C)cc5C)sc4-c4sc(C(C)(C)C)cc4C)C(F)(F)C(F)(F)C3(F)F)c2cc1OCCCC(=O)OCC

>  <recorded.number>
1.31

$$$$
>  <structure.string>
CC(C)(C)c1ccc(-c2oc3ccccc3c2C2=C(c3cc(-c4ccc(C(C)(C)C)s4)sc3-c3ccc(C(C)(C)C)s3)C(F)(F)C(F)(F)C2(F)F)cc1

>  <recorded.number>
1.37

$$$$

Query :: What does the record list as RO [O] (oxidation potential of ring-open isomer) for CC(=O)Oc1cc2oc(-c3ccc(C(C)(C)C)cc3)c(C3=C(c4cc(-c5ccc(C(C)(C)C)s5)sc4-c4ccc(C(C)(C)C)s4)C(F)(F)C(F)(F)C3(F)F)c2cc1OC(C)=O ?
Result :: 1.38
